Consider the following compounds; for each one, report its log10(IC50).
Assay: Inhibition of apamin-sensitive SKCa channel of guinea-pig hepatocytes
Format: cell-based, Cavia porcellus
Settings: hepatocyte
Please interpret these as log10 of IC50 where IC50 is in µM.

log10(IC50) reported for this compound CC(=O)O[C@H]1C[C@@H]2CC[C@@H]3[C@H](CC[C@@]4(C)[C@H]3C[C@H]([N+]3(C)CCCCC3)[C@@H]4OC(C)=O)[C@@]2(C)C[C@@H]1N1CCCCC1 : 0.65

Measured log10(IC50), C=CC1CN2CCC1CC2[C@H](O)c1ccnc2ccccc12 (stereo partly specified) : 2.62

Looking up COc1cc2c3cc1Oc1cc(ccc1O)C[C@@H]1c4c(cc(OC)c(O)c4Oc4ccc(cc4)C[C@@H]3N(C)CC2)CC[N+]1(C)C , I see its log10(IC50) listed as 0.48

Short answer for C=C[C@H]1CN2CC[C@H]1C[C@@H]2[C@@H](O)c1ccnc2ccc(OC)cc12 : log10(IC50) was 2.38

Consider c1ccc2c(c1)c1cc[n+]2Cc2ccc(cc2)Cc2ccc(cc2)C[n+]2ccc(c3ccccc32)NCCCCCCCCCCN1 . Its measured log10(IC50) is 0.41

// recorded log10(IC50) for C=C[C@H]1CN2CC[C@H]1C[C@H]2[C@H](O)c1ccnc2ccc(OC)cc12 : 2.18

Input CC[N+](CC)(CC)CCOc1cccc(OCC[N+](CC)(CC)CC)c1OCC[N+](CC)(CC)CC . Output log10(IC50): 1.08

Form field log10(IC50), entry CC[N+](CC)(CC)CC : 3.90

Looking up CC(=O)O[C@H]1C[C@@H]2CC[C@@H]3[C@H](CC[C@@]4(C)[C@H]3C[C@H]([N+]3(C)CCCCC3)[C@@H]4OC(C)=O)[C@@]2(C)C[C@@H]1[N+]1(C)CCCCC1 , I see its log10(IC50) listed as 0.54

get_value(item= CCN(CC)CCCC(C)Nc1c2ccc(Cl)cc2nc2ccc(OC)cc12 (stereo unspecified) , readout=log10(IC50)) returns 1.86

Looking up C=C[C@H]1CN2CC[C@H]1C[C@@H]2[C@@H](O)c1ccnc2ccccc12 , I see its log10(IC50) listed as 2.57

Measured log10(IC50), C[N+](C)(C)CCCCCCCCCC[N+](C)(C)C : 2.65

Entry CCCCOc1cc(C(=O)NCCN(CC)CC)c2ccccc2n1 , log10(IC50) reported as 2.67

The value of log10(IC50) measured for the compound C[N+](C)(C)CCCCCC[N+](C)(C)C [HEXAMETHONIUM CHLORIDE] turned out to be 3.30

Please fill in: log10(IC50) reported for Cc1cc(N)c2ccccc2[n+]1CCCCCCCCCC[n+]1c(C)cc(N)c2ccccc21 [DEQUALINIUM CHLORIDE] = 0.23

// log10(IC50) lookup, compound = O=C1C[C@@H]2OCC=C3CN4CC[C@]56c7ccccc7N1[C@H]5[C@H]2[C@H]3C[C@H]46 , result: 2.28

Source listed as ChEMBL document CHEMBL1137133.
